Tested on: lymphocytes of healthy persons
METHOD DESCRIPTION: Active E-rosette test, lymphocytes of healthy persons
Format: cell-based, human
SETUP CONDITIONS: 10^-11 moles/liter, n = 4
Description: The active E-rosette test was carried out according to a modified method of Wybran et al [Wybran et al: New Engl. J. Med. 292, 475 (1975)] by the lymphocites of healthy and autoimmune patients (rheumatoid arthritis and systemic lupus erythematosus). […] Lymphocytes bonding more than three sheep erythrocite were counted under a microscope and 4×100 cells were evaluated. […]
Residues, ends and D or L forms follow the SMILES beside them.
REPORTED METRIC: E-rosette forming activity, percentage amount of active lymphocytes
Lab note: write values as number then unit, every time.

Some compounds with recorded E-rosette forming activity, percentage amount of active lymphocytes:
*Q* GET E-rosette forming activity, percentage amount of active lymphocytes where system = lymphocytes of healthy persons and item = CC[C@H](C)[C@H](NC(=O)[C@H](CC(=O)O)NC(=O)[C@H](CCCCN)NC(=O)[C@@H](N)CCCNC(=N)N)C(=O)O [Arg--Lys--Asp--Ile, Arg-Lys-Asp-Ile] (H-RKDI-OH)
*A* 30.7%

*Q* GET E-rosette forming activity, percentage amount of active lymphocytes where system = lymphocytes of healthy persons and item = CC(C)[C@H](NC(=O)[C@H](CC(=O)O)NC(=O)[C@H](CCCCN)NC(=O)[C@@H](N)CCCNC(=N)N)C(=O)O [Arg--Lys--Asp--Val, Arg-Lys-Asp-Val] (H-RKDV-OH)
*A* 33.7%

Attention now shifts to the item below.
*Q* GET E-rosette forming activity, percentage amount of active lymphocytes where system = lymphocytes of healthy persons and item = CC(C)[C@H](NC(=O)[C@H](CC(=O)O)NC(=O)[C@H](C)NC(=O)[C@@H](N)CCCNC(=N)N)C(=O)O [Arg--Ala--Asp--Val, Arg-Ala-Asp-Val] (H-RADV-OH)
*A* 36.0%

====

Tested on: lymphocytes of patients suffering from rheumatoid arthritis
METHOD DESCRIPTION: Active E-rosette test, lymphocytes of rheumatoid arthritis patients
Type: cell-based, human
SETUP CONDITIONS: 10^-9 moles/liter, n = 4
Non-standard residues stand in square brackets, D forms with d. Residues, ends and D or L forms follow the SMILES beside them. pGlu = O=C1CC[C@@H](C(=O)O)N1
In this section we review reported E-rosette forming activity, percentage amount of active lymphocytes values for a set of compounds.
The response must be a number in % with no trailing unit.

Some compounds with recorded E-rosette forming activity, percentage amount of active lymphocytes:
*Q* # return recorded E-rosette forming activity, percentage amount of active lymphocytes for entry CC(C)[C@H](NC(=O)[C@H](CC(=O)O)NC(=O)[C@H](CCCCN)NC(=O)[C@H](CCCNC(=N)N)NC(=O)[C@@H]1CCC(=O)N1)C(=O)N[C@@H](Cc1ccc(O)cc1)C(=O)O [Glp--Arg--Lys--Asp--Val--Tyr, Glp-Arg-Lys-Asp-Val-Tyr] ([pGlu]RKDVY-OH)
*A* 26.6

*Q* # return recorded E-rosette forming activity, percentage amount of active lymphocytes for entry CC(C)[C@H](NC(=O)[C@H](CC(=O)O)NC(=O)[C@H](CCCCN)NC(=O)[C@@H](N)CCCNC(=N)N)C(N)=O [Arg--Lys--Asp--Val--NH2, Arg-Lys-Asp-Val-NH2] (H-RKDV-NH2)
*A* 34.8

*Q* # return recorded E-rosette forming activity, percentage amount of active lymphocytes for entry CC(C)[C@H](NC(=O)[C@H](C)NC(=O)[C@H](CCCCN)NC(=O)[C@@H](N)CCCNC(=N)N)C(=O)O [Arg--Lys--Ala--Val, Arg-Lys-Ala-Val] (H-RKAV-OH)
*A* 25.5

*Q* # return recorded E-rosette forming activity, percentage amount of active lymphocytes for entry CC(C)[C@H](NC(=O)[C@H](CC(N)=O)NC(=O)[C@H](CCCCN)NC(=O)[C@@H](N)CCCNC(=N)N)C(=O)O [Arg--Lys--Asn--Val, Arg-Lys-Asn-Val] (H-RKNV-OH)
*A* 23.7

Attention now shifts to the item below.
*Q* # return recorded E-rosette forming activity, percentage amount of active lymphocytes for entry CC(C)[C@H](NC(=O)[C@H](CC(=O)O)NC(=O)[C@H](CCCCN)NC(=O)[C@@H](N)CCCNC(=N)N)C(=O)O [Arg--Lys--Asp--Val, Arg-Lys-Asp-Val] (H-RKDV-OH)
*A* 36.8

====

Tested on: lymphocytes of healthy persons
METHOD DESCRIPTION: Active E-rosette test, lymphocytes of healthy persons
Type: cell-based, human
SETUP CONDITIONS: 10^-3 moles/liter, n = 4
Non-standard residues stand in square brackets, D forms with d. Residues, ends and D or L forms follow the SMILES beside them. pGlu = O=C1CC[C@@H](C(=O)O)N1
In this section we review reported E-rosette forming activity, percentage amount of active lymphocytes values for a set of compounds.
Lab note: write values as number then unit, every time.

*Q* GET E-rosette forming activity, percentage amount of active lymphocytes where system = lymphocytes of healthy persons and item = C[C@H](NC(=O)[C@H](CC(=O)O)NC(=O)[C@H](CCCCN)NC(=O)[C@@H](N)CCCNC(=N)N)C(=O)O [Arg--Lys--Asp--Ala, Arg-Lys-Asp-Ala] (H-RKDA-OH)
*A* 41.2%

*Q* GET E-rosette forming activity, percentage amount of active lymphocytes where system = lymphocytes of healthy persons and item = CC[C@H](C)[C@H](NC(=O)[C@H](CC(=O)O)NC(=O)[C@H](CCCCN)NC(=O)[C@@H](N)CCCNC(=N)N)C(=O)O [Arg--Lys--Asp--Ile, Arg-Lys-Asp-Ile] (H-RKDI-OH)
*A* 35.5%

Attention now shifts to the item below.
*Q* GET E-rosette forming activity, percentage amount of active lymphocytes where system = lymphocytes of healthy persons and item = CC(C)[C@H](NC(=O)[C@H](CC(=O)O)NC(=O)[C@H](CCCCN)NC(=O)[C@H](CCCNC(=N)N)NC(=O)[C@@H]1CCC(=O)N1)C(=O)N[C@@H](Cc1ccc(O)cc1)C(=O)O [Glp--Arg--Lys--Asp--Val--Tyr, Glp-Arg-Lys-Asp-Val-Tyr] ([pGlu]RKDVY-OH)
*A* 29.9%

====

Test system: lymphocytes of healthy persons
METHOD DESCRIPTION: Active E-rosette test, lymphocytes of healthy persons
Type: cell-based, human
SETUP CONDITIONS: 10^-3 moles/liter, n = 4
Residues, ends and D or L forms follow the SMILES beside them.
REPORTED METRIC: E-rosette forming activity, percentage amount of active lymphocytes
Lab note: write values as number then unit, every time.

*Q* # return recorded E-rosette forming activity, percentage amount of active lymphocytes for entry CC(C)[C@H](NC(=O)[C@H](CCCCN)NC(=O)[C@H](CC(=O)O)NC(=O)[C@@H](N)CCCNC(=N)N)C(=O)O [Arg--Asp--Lys--Val, Arg-Asp-Lys-Val] (H-RDKV-OH)
*A* 34.2%

*Q* # return recorded E-rosette forming activity, percentage amount of active lymphocytes for entry CC(C)[C@H](NC(=O)[C@H](CC(=O)O)NC(=O)[C@H](C)NC(=O)[C@@H](N)CCCNC(=N)N)C(=O)O [Arg--Ala--Asp--Val, Arg-Ala-Asp-Val] (H-RADV-OH)
*A* 32.5%

*Q* # return recorded E-rosette forming activity, percentage amount of active lymphocytes for entry N=C(N)NCCC[C@H](N)C(=O)N[C@@H](CCCCN)C(=O)N[C@@H](CC(=O)O)C(=O)O [Arg--Lys--Asp, Arg-Lys-Asp] (H-Arg-Lys-Asp-OH)
*A* 29.9%

*Q* # return recorded E-rosette forming activity, percentage amount of active lymphocytes for entry CC(C)[C@H](NC(=O)[C@H](CC(=O)O)NC(=O)[C@H](CCCCN)NC(=O)[C@H](C)N)C(=O)O [Ala--Lys--Asp--Val, Ala-Lys-Asp-Val] (H-AKDV-OH)
*A* 43.4%

*Q* # return recorded E-rosette forming activity, percentage amount of active lymphocytes for entry CC(C)[C@H](NC(=O)[C@H](CC(=O)O)NC(=O)[C@H](CCCNC(=N)N)NC(=O)[C@@H](N)CCCCN)C(=O)O [Lys--Arg--Asp--Val, Lys-Arg-Asp-Val] (H-KRDV-OH)
*A* 31.5%

====

Test system: lymphocytes of patients suffering from rheumatoid arthritis
METHOD DESCRIPTION: Active E-rosette test, lymphocytes of rheumatoid arthritis patients
Format: cell-based, human
SETUP CONDITIONS: 10^-9 moles/liter, n = 4
Non-standard residues stand in square brackets, D forms with d. Residues, ends and D or L forms follow the SMILES beside them. pGlu = O=C1CC[C@@H](C(=O)O)N1
REPORTED METRIC: E-rosette forming activity, percentage amount of active lymphocytes (%)
The response must be a number in % with no trailing unit.

Some compounds with recorded E-rosette forming activity, percentage amount of active lymphocytes:
*Q* GET E-rosette forming activity, percentage amount of active lymphocytes where system = lymphocytes of patients suffering from rheumatoid arthritis and item = CC[C@H](C)[C@H](NC(=O)[C@H](CC(=O)O)NC(=O)[C@H](CCCCN)NC(=O)[C@@H](N)CCCNC(=N)N)C(=O)O [Arg--Lys--Asp--Ile, Arg-Lys-Asp-Ile] (H-RKDI-OH)
*A* 28.7

*Q* GET E-rosette forming activity, percentage amount of active lymphocytes where system = lymphocytes of patients suffering from rheumatoid arthritis and item = N=C(N)NCCC[C@H](N)C(=O)N[C@@H](CCCCN)C(=O)N[C@@H](CC(=O)O)C(=O)O [Arg--Lys--Asp, Arg-Lys-Asp] (H-Arg-Lys-Asp-OH)
*A* 30.7

*Q* GET E-rosette forming activity, percentage amount of active lymphocytes where system = lymphocytes of patients suffering from rheumatoid arthritis and item = N=C(N)NCCC[C@H](NC(=O)[C@@H]1CCC(=O)N1)C(=O)N[C@@H](CCCCN)C(=O)N[C@@H](CC(=O)O)C(=O)O [Glp--Arg--Lys--Asp, Glp-Arg-Lys-Asp] ([pGlu]RKD-OH)
*A* 19.7

*Q* GET E-rosette forming activity, percentage amount of active lymphocytes where system = lymphocytes of patients suffering from rheumatoid arthritis and item = COC(=O)[C@@H](NC(=O)[C@H](CC(=O)O)NC(=O)[C@H](CCCCN)NC(=O)[C@@H](N)CCCNC(=N)N)C(C)C [Arg--Lys--Asp--Val--OMe, Arg-Lys-Asp-Val-OMe] (H-RKDV-OMe)
*A* 27.9

*Q* GET E-rosette forming activity, percentage amount of active lymphocytes where system = lymphocytes of patients suffering from rheumatoid arthritis and item = C[C@H](NC(=O)[C@H](CC(=O)O)NC(=O)[C@H](CCCCN)NC(=O)[C@@H](N)CCCNC(=N)N)C(=O)O [Arg--Lys--Asp--Ala, Arg-Lys-Asp-Ala] (H-RKDA-OH)
*A* 25.3

More entries:
*Q* GET E-rosette forming activity, percentage amount of active lymphocytes where system = lymphocytes of patients suffering from rheumatoid arthritis and item = CC(C)[C@H](NC(=O)[C@H](CC(=O)O)NC(=O)[C@H](CCCNC(=N)N)NC(=O)[C@@H](N)CCCCN)C(=O)O [Lys--Arg--Asp--Val, Lys-Arg-Asp-Val] (H-KRDV-OH)
*A* 25.7

*Q* GET E-rosette forming activity, percentage amount of active lymphocytes where system = lymphocytes of patients suffering from rheumatoid arthritis and item = CC(C)[C@H](NC(=O)[C@H](CC(=O)O)NC(=O)[C@H](CCCCN)NC(=O)[C@H](C)N)C(=O)O [Ala--Lys--Asp--Val, Ala-Lys-Asp-Val] (H-AKDV-OH)
*A* 23.9
